Molecular target: Tyrosyl-tRNA synthetase, putative (Trypanosoma cruzi (strain CL Brener))
Assay: Trypanosoma cruzi tyrosyl tRNA synthetase (TcYRS) SOP
Format: functional
Parameters: scale not given: direction of the effect not stated beside the values
Settings: 30 µM
hey, just use YES if measured Percent Effect is less than 10%, otherwise NO

In: I wonder whether "Cc1cccc(NC(=O)Cn2ncc(SCC(N)=O)c(Cl)c2=O)c1C" has Percent Effect below 10%. Can you tell?
Out: YES

In: I wonder whether C1CC(c2noc(C3CC3)n2)CN(Cc2noc(C3CC3)n2)C1 (stereo not given) has Percent Effect below 10%. Can you tell?
Out: YES

In: I wonder whether "NC(=O)C1CCN(C(=O)CCn2ccc3cc(Br)ccc32)CC1" has Percent Effect below 10%. Can you tell?
Out: YES

In: I wonder whether "Cc1nc(NCCc2ccc(Cl)cc2)cc(C(=O)N2CCOCC2)n1" has Percent Effect below 10%. Can you tell?
Out: NO

In: I wonder whether CCOc1nnc(CN(C)C2CCCN(c3cccnn3)C2)s1 (stereo not given) has Percent Effect below 10%. Can you tell?
Out: NO

In: I wonder whether N#Cc1cccc(CS(=O)(=O)NCCC(O)c2ccccc2)c1 (stereo not given) has Percent Effect below 10%. Can you tell?
Out: NO

In: I wonder whether Cc1nnn2c1COCC(CNC(=O)c1ccc3[nH]ccc3c1)C2 (stereo not given) has Percent Effect below 10%. Can you tell?
Out: NO

In: I wonder whether O=C(C1CC1)N1CCCC1C1CCN(Cc2ccccc2)CC1 (stereo not given) has Percent Effect below 10%. Can you tell?
Out: YES

In: I wonder whether "CC(C)Oc1cc(N2CCC(N3CCC(O)CC3)CC2)nc(N)n1" has Percent Effect below 10%. Can you tell?
Out: NO

In: I wonder whether CCOCC1CN(Cc2ccoc2)Cc2nn(CC3CC3)cc21 (stereo not given) has Percent Effect below 10%. Can you tell?
Out: YES

In: I wonder whether "O=C1NCCN1C1CCN(Cc2nc(-c3ccoc3)no2)CC1" has Percent Effect below 10%. Can you tell?
Out: NO

In: I wonder whether COc1ccccc1CC1CCCN(CC(N)=O)C1 (stereo not given) has Percent Effect below 10%. Can you tell?
Out: YES

In: I wonder whether N#Cc1ccccc1CN1CCCCC1Cn1cncn1 (stereo not given) has Percent Effect below 10%. Can you tell?
Out: NO

In: I wonder whether "O=C(CN1CCc2ccccc21)Nc1ccc(OC(F)F)cc1" has Percent Effect below 10%. Can you tell?
Out: YES

In: I wonder whether Cc1nccn1C1CCCN(C(=O)c2cc(O)nc3ccccc23)C1 (stereo not given) has Percent Effect below 10%. Can you tell?
Out: NO

In: I wonder whether O=C(NCc1ccc(-c2ccn[nH]2)cc1)N1CCC(N2CCCC2)C1 (stereo not given) has Percent Effect below 10%. Can you tell?
Out: NO

In: I wonder whether Cc1ccc(OCCCNC(=O)NC(C)c2nncn2C)cc1 (stereo not given) has Percent Effect below 10%. Can you tell?
Out: NO

In: I wonder whether "CSc1ccc(NS(=O)(=O)c2cnn(C)c2)cn1" has Percent Effect below 10%. Can you tell?
Out: NO

In: I wonder whether CC(C(=O)NCc1ccnc(N2CCN(C)CC2)c1)n1cccn1 (stereo not given) has Percent Effect below 10%. Can you tell?
Out: YES

In: I wonder whether "COc1cccc(OCc2cc(C(=O)NC[C@H]3CCCN3)n[nH]2)c1" has Percent Effect below 10%. Can you tell?
Out: NO

In: I wonder whether Fc1ccc(CN2CCCC(c3nnc(-c4cnccn4)o3)C2)cc1F (stereo not given) has Percent Effect below 10%. Can you tell?
Out: NO

In: I wonder whether COC(=O)CS(=O)(=O)CCC(=O)N1CCCC1c1ccsc1 (stereo not given) has Percent Effect below 10%. Can you tell?
Out: YES

In: I wonder whether Cc1nn(C)c(N2CCOCC2)c1CNC1CCc2ccccc2C1 (stereo not given) has Percent Effect below 10%. Can you tell?
Out: NO

In: I wonder whether "Cc1cc(CNC(=O)N2CCN(c3nc(C)c(C)s3)CC2)no1" has Percent Effect below 10%. Can you tell?
Out: NO

In: I wonder whether Cc1nccn1C1CCCN(C(=O)c2ccc3c(c2)nnn3C)C1 (stereo not given) has Percent Effect below 10%. Can you tell?
Out: YES

In: I wonder whether "CC(C)N1CCc2c(C#N)c(NCc3ccco3)n3cnnc3c2C1" has Percent Effect below 10%. Can you tell?
Out: YES

In: I wonder whether COCCN1CCC(NCc2cccnc2)C1 (stereo not given) has Percent Effect below 10%. Can you tell?
Out: YES

In: I wonder whether "CC(C)c1ncc2c(n1)CN(Cc1nc(Cc3ccccc3)no1)CC2" has Percent Effect below 10%. Can you tell?
Out: NO

In: I wonder whether "Cc1csc(CCCNC(=O)[C@H]2CNC[C@@H](C(=O)N3CCCC3)C2)n1" has Percent Effect below 10%. Can you tell?
Out: NO

In: I wonder whether CS(=O)(=O)N1CCCCCC1C1CCN(c2ncccn2)CC1 (stereo not given) has Percent Effect below 10%. Can you tell?
Out: YES

In: I wonder whether Cc1cc(C(F)(F)F)nn1CC(C)C(=O)Nc1ccncc1 (stereo not given) has Percent Effect below 10%. Can you tell?
Out: YES

In: I wonder whether CCOC(=O)NC(C(=O)NCc1ccc(N2CCCCC2)nc1)C(C)C (stereo not given) has Percent Effect below 10%. Can you tell?
Out: NO

In: I wonder whether CCOC1CCCN(C(=O)c2cnc3c(cnn3C3CCCC3)c2)C1 (stereo not given) has Percent Effect below 10%. Can you tell?
Out: YES

In: I wonder whether NC(=O)c1ccc(OCC(=O)N2CCCC(n3cccn3)C2)cc1 (stereo not given) has Percent Effect below 10%. Can you tell?
Out: NO
